# ASSAY_SYSTEM: Sodium-dependent noradrenaline transporter (Homo sapiens)
# Sequence (P23975 whole entry): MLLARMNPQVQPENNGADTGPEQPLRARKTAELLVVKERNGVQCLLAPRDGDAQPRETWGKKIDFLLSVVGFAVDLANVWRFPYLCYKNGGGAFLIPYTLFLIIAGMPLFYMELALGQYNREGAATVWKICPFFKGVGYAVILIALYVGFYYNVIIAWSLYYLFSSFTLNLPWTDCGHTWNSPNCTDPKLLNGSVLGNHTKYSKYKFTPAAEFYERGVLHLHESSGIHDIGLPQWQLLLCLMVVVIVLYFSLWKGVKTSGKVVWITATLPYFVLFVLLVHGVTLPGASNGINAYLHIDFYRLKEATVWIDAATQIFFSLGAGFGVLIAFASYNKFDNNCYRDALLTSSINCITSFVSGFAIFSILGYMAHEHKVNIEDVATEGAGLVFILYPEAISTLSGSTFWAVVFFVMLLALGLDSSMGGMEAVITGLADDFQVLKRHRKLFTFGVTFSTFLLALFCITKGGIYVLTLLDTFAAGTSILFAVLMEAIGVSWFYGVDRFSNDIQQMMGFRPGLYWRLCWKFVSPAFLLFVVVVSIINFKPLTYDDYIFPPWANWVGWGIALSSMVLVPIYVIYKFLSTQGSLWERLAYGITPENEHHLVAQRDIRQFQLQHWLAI
pKi: −log10 of the molar value.
Would you kindly list pKi for each of these molecules?

[ask] Please give the measured pKi for this molecule: CN(CCc1ccccc1OC(F)(F)F)CCN1CCCCC1
[reply] < 4.00

[ask] Need pKi, item CN(CCc1ccc(OC(F)(F)F)cc1)CCN1CCCC1
[reply] < 4.00

[ask] Could you tell me which pKi is on file for COc1ccc(CCN(C)CCN2CCCCC2)cc1 ?
[reply] 4.71

[ask] Dear colleague, I am looking for the recorded pKi of the following molecule: CCN(CCc1ccccc1OC(F)(F)F)CCN1CCCCC1
[reply] 4.24

[ask] Name the recorded pKi for CCN(CCc1cccc(OC(F)(F)F)c1)CCN1CCCCC1 .
[reply] < 5.00

[ask] Need pKi of CN(CCc1cccc(OC(F)(F)F)c1)CCN1CCCC1 , thanks.
[reply] < 5.00

[ask] // returns reported pKi for input CCN(CCc1ccc(OC(F)(F)F)cc1)CCN1CCCCC1
[reply] < 4.00

[ask] So what's the measured pKi for this one? CN(CCc1ccc(OC(F)(F)F)cc1)CCN1CCCCC1
[reply] < 4.00

[ask] Consider the molecule CCN(CCc1ccc(OC(F)(F)F)cc1)CCN1CCCC1 and give its measured pKi.
[reply] < 4.00

[ask] For CN(CCc1ccccc1OC(F)(F)F)CCN1CCCC1 , what is its reported pKi?
[reply] < 4.00

[ask] Find the recorded pKi belonging to CCN(CCc1ccccc1OC(F)(F)F)CCN1CCCC1 and report it.
[reply] < 4.00

[ask] # pKi lookup, item CCN(CCc1cccc(OC(F)(F)F)c1)CCN1CCCC1
[reply] < 5.00

[ask] // query pKi value for entry CN(CCc1cccc(OC(F)(F)F)c1)CCN1CCCCC1
[reply] < 5.00

* * *

# ASSAY_SYSTEM: Sodium-dependent dopamine transporter (Homo sapiens, UniProt Q01959)
# Sequence (Q01959 whole entry): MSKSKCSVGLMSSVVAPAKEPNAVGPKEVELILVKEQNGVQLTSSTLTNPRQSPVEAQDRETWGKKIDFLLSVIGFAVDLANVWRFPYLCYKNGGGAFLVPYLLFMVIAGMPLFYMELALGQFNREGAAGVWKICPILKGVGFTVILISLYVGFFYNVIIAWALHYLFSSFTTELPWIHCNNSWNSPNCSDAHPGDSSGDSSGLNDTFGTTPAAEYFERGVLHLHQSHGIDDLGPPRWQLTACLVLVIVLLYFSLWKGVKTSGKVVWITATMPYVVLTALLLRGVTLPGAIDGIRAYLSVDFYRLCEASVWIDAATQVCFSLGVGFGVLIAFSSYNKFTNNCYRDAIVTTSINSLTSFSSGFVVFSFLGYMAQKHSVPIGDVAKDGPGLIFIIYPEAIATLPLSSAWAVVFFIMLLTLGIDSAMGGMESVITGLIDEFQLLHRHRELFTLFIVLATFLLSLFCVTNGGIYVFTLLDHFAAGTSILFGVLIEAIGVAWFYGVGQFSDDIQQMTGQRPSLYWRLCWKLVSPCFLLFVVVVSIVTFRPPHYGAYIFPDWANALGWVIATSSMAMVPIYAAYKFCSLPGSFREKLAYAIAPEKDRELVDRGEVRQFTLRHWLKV
Label TRUE when Ki is strictly below 10 µM; at or above that, label FALSE.

[ask] Confirm or reject: Ki of COc1ccc(CCN(C)CCN2CCCCC2)cc1 lies strictly below 10 µM
[reply] FALSE

[ask] Does this molecule meet the criterion Ki < 10 µM? CCN(CCc1ccc(OC(F)(F)F)cc1)CCN1CCCC1
[reply] TRUE

[ask] Answer whether the molecule CN(CCc1cccc(OC(F)(F)F)c1)CCN1CCCC1 has Ki strictly less than 10 µM
[reply] FALSE

[ask] Is Ki strictly under 10 µM for the entry CCN(CCc1ccccc1OC(F)(F)F)CCN1CCCCC1 ?
[reply] TRUE

[ask] Lab note: confirm whether the reported Ki for this molecule is below 10 µM, equality not counting. molecule: CN(CCc1ccc(OC(F)(F)F)cc1)CCN1CCCC1
[reply] TRUE

[ask] # strict comparison: is reported Ki < 10 µM? input = CN(CCc1ccccc1OC(F)(F)F)CCN1CCCC1
[reply] FALSE

[ask] hey, is Ki for CCN(CCc1cccc(OC(F)(F)F)c1)CCN1CCCC1 lower than 10 µM or not?
[reply] FALSE

* * *

Please respond with reported Activity for every item in the list.
# Tested on: Mus musculus
# EXPERIMENT: Anticonvulsant activity in Swiss Webster mouse assessed as inhibition of cocaine-induced convulsions at 5 mg/kg, ip
# Assay type: functional
# Set-up: scale not given: the % may be the effect or the level left
# CONDITION: route intraperitoneal
// note: answer is a bare numeric in %

[ask] Can you share its Activity? I mean this compound: CCN(CCc1ccccc1OC(F)(F)F)CCN1CCCC1
[reply] 40

[ask] # input compound: CN(CCc1ccc(OC(F)(F)F)cc1)CCN1CCCC1 ; wanted: its Activity
[reply] 50

[ask] Reported Activity for CCN(CCc1cccc(OC(F)(F)F)c1)CCN1CCCC1 : what is it?
[reply] 60

[ask] For CN(CCc1cccc(OC(F)(F)F)c1)CCN1CCCC1 , what is its reported Activity?
[reply] 50

[ask] Can you share its Activity? I mean this compound: CCN(CCc1ccccc1OC(F)(F)F)CCN1CCCCC1
[reply] 47

[ask] Record request: Activity value, item CN(CCc1cccc(OC(F)(F)F)c1)CCN1CCCCC1
[reply] 80

[ask] Fill blank: measured Activity of the compound CN(CCc1ccccc1OC(F)(F)F)CCN1CCCCC1 is ____.
[reply] 80

[ask] Need Activity, item CN(CCc1ccc(OC(F)(F)F)cc1)CCN1CCCCC1
[reply] 20

[ask] Look at this compound and give its reported Activity. CCN(CCc1ccc(OC(F)(F)F)cc1)CCN1CCCC1
[reply] 50

[ask] Name the reported Activity value associated with the compound CN(CCc1ccccc1OC(F)(F)F)CCN1CCCC1
[reply] 70

[ask] Request the reported Activity associated with CCN(CCc1cccc(OC(F)(F)F)c1)CCN1CCCCC1
[reply] 25

[ask] Using the record for CCN(CCc1ccc(OC(F)(F)F)cc1)CCN1CCCCC1 , report its Activity.
[reply] 20
